# Test system: control sera (pooled serum of ten healthy LUMC hospital workers; commercial negative donor pooled serum from the Dutch bloodbank)
# Assay type: binding, human
# Set-up: unit not given here
measured-parameter: Binding of Control serum LUMC to looped peptides

>>> df
     input_sequence  meas_value
 0  ALTQHGKEELRFPRG         0.4
 1  RCWLGWKCKSKNPLL         0.7
 2  KRTATKQYNVTQAFG         0.6
 3  LIYFLQCINACRIIM         0.7
 4  AFQHQNSKKTTKLVV         0.6
 5  ESTQITTDTGIENAT         0.4
 6  PNNTASWFTALTQHG         0.7
 7  PQGLPNNTASWFTAL         0.9
 8  ILVRYNTRGNTYSTA         0.6
 9  FLYLYALIYFLQCIN         0.4
10  SRGGSQASSRSSSRS         0.6
